Taken from the supplement of paper PMC4466140.

molecular target: ScRvs167; experiment: SPOT peptide array binding signal intensity (averaged, normalized) (arbitrary units (background-subtracted, floor 0; scale differs between SH3 domains)); higher = stronger binding of the SH3 domain to the peptide
experimental_endpoint: SPOT peptide array binding signal intensity
One number for each entry.

Observe how each entry below is paired with its result.
SNRRPVPRRPSQPLN | 2630
EAEEAAPQLPSRSSA | 1500
LLRRTIPKRPFYHVL | 612

For each of the binders below, note its SPOT peptide array binding signal intensity.
1. AHFQPQRTAPKPPIS
2. RPPRPPPKPLHLRTE
3. RSVKRPRRAPRPVVS
4. VTHRLRISIPGITGR
5. RAPPPVPKKPSSRIA
6. QFDLKMPSKPIHNLK
7. VRVKKRPLIRPLNSS

### Response
[59.8, 375, 75, 45.2, 1400, 2.83, 15.5]

For each of the binders below, note its SPOT peptide array binding signal intensity.
1. NRLRKRLNLPSEISI
2. FSRRQSMDIPSKNRN
3. SKAKRPKFLLDLQIK
4. RSKRLFPVRPMATAH
5. GLRRARYKFPGQQKI
6. NRPAIRIPSLKKPAL

### Response
[2.5, 70.5, 1.67, 256, 31, 39.8]

For each of the binders below, note its SPOT peptide array binding signal intensity.
1. LLGRKRPVMERVVDI
2. KDKKTKPTPPPKPSH

### Response
[7.67, 1.17]
